// provenance: the supplement of paper PMC6965134

Protocol notes: TIMS collisional cross section (CCS, N2) of the lipid ion; higher = larger ion cross section
Measurement parameters: sample type: HeLa; ionization mode: positive; one isomer drawn
Measured property: TIMS collisional cross section (Å²)
Quick note: give the figure in Å², leave out the unit.

Some solved entries appear below for comparison.
Compound	Measured property	Observed value
CCCCC/C=C\C/C=C\CCCCCCCC(=O)OC[C@@H](COC(=O)CCCCCCC/C=C\CCCCCC)OC(=O)CCCCCCC/C=C\CCCCCC [TG 16:1_16:1_18:2] (ion (formula + adduct): [C53H94O6+NH4] 1+)	TIMS collisional cross section	311.9
CC/C=C\C/C=C\C/C=C\C/C=C\C/C=C\CCCC(=O)O[C@H](COC(=O)CCCCCCC/C=C\C/C=C\CCCCC)COP(=O)([O-])OCC[N+](C)(C)C [PC 18:2@_20:5] (ion (formula + adduct): [C46H78NO8P+H] 1+)	TIMS collisional cross section	286.6
CCCCC/C=C\C/C=C\CCCCCCCCCC(=O)O[C@H](COC(=O)CCCCCCC/C=C\CCCCCCCC)COP(=O)([O-])OCC[N+](C)(C)C [PC 18:1_20:2] (ion (formula + adduct): [C46H86NO8P+H] 1+)	TIMS collisional cross section	295.9
CCCCC/C=C\C/C=C\C/C=C\C/C=C\CCCC(=O)OC[C@@H](COC(=O)CCCCCCCCCCCCCCC)OC(=O)CCCCCCC/C=C\CCCCCCC [TG 16:0_17:1_20:4] (ion (formula + adduct): [C56H98O6+NH4] 1+)	TIMS collisional cross section	321.4
CCCCC/C=C\C/C=C\CCCCCCCC(=O)O[C@H](COC(=O)CCCCCCC/C=C\CCCCCCCC)COP(=O)(O)OCCN [PE 18:1_18:2] (ion (formula + adduct): [C41H76NO8P+H] 1+)	TIMS collisional cross section	275.7

Inquiry: Data request, read-out TIMS collisional cross section, for CCCCCCC/C=C\CCCCCCCC(=O)O[C@@H](COC(=O)CCCCCCC/C=C\CCCCCCCC)COC(=O)CCCCCCCCCCCCCC [TG 15:0_17:1_18:1] (ion (formula + adduct): [C53H98O6+NH4] 1+)
Reply text: 315.9

Inquiry: # input compound: CCCCCCCCCCCCCCCC(=O)OC[C@@H](O)COP(=O)(O)OCCN [LPE 16:0] (ion (formula + adduct): [C21H44NO7P+H] 1+) ; wanted: its TIMS collisional cross section
Reply text: 214.5

Inquiry: Query (compound): CCCCC/C=C\CCCCCCCC(=O)OC[C@@H](COC(=O)CCCCCCCCCCC)OC(=O)CCCCCCCCCCCCC [TG 12:0_14:0_15:1] (ion (formula + adduct): [C44H82O6+NH4] 1+) ; field requested: TIMS collisional cross section
Reply text: 289.5

Inquiry: Consider the compound shown here: CCCCCCCC/C=C\CCCCCCCCCCCCCC(=O)N[C@@H](CO)[C@H](O)/C=C/CCCCCCCCCCCCC [Cer d18:1_24:1@] (ion (formula + adduct): [C42H81NO3+H] 1+) What is its recorded TIMS collisional cross section?
Reply text: 278.2
